TGT: EGFR on the surface of human tumour cells (A431, H292) (human, UniProt P00533 25-1210)
ASSAY PROTOCOL: cell-based or functional assay
PARAMETER MEASURED: % inhibition of EGFR phosphorylation at 100 nM binder, cell-based assay (%)

INSERT INTO results (binder, reported_result) VALUES
  ('E66 (designed binder) 10Fn3 domain: MGVSDVPRDLEVVAATPTSLLISWKSYGSAYQYYRITYGETGGNSPVQEFTVPGDLQTATISGLKPGVDYTITVYAITDYYNPDTHEYKYHVSPISINYRTEIDKPSQ', 75),
  ('E70 (designed binder) 10Fn3 domain: MGVSDVPRDLEVVAATPTSLLISWVSARGRYQYYRITYGETGGNSPVQEFTVPGGVRTATISGLKPGVDYTITVYAVTDYYNLETYEYHYYRTPISINYRTEIDKPSQ', 76.8);
